# PROTOCOL DESCRIPTION: chemical genetic growth profiling, strain panel (AID 1159580);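 further: tested at 20 µM; growth read once vehicle control cultures reached saturation at 30 °C; 1 = growth at the plate median or of vehicle wells; lower values mean less growth of the strain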
# EXPERIMENTAL CONTEXT: S. cerevisiae deletion strains, growth OD, locus YOR080W, strain dia2, active compounds read low
The campaign covered roughly 5,500 compounds. About 2,000 (36%) were called active. Not shown: some 18% with an inconclusive outcome. This is one part of the list.
For each record, write down the corresponding normalized growth.
One number for each entry.

COMPOUND | normalized growth
OC1C(O)C(O)C(O)C(O)C1O (configuration not stated) | 0.993

Give one value of normalized growth per listed compound.
1. CCCCCCCCCc1ccc(O)cc1
2. CCCCC1C(=O)N(c2ccccc2)N(c2ccccc2)C1=O

Output:
[0.0669, 0.987]

====

# PROTOCOL DESCRIPTION: chemical genetic growth profiling, strain panel (AID 1159580);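 further: tested at 20 µM; growth read once vehicle control cultures reached saturation at 30 °C; 1 = growth at the plate median or of vehicle wells; lower values mean less growth of the strain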
# EXPERIMENTAL CONTEXT: S. cerevisiae deletion strains, growth OD, locus YER167W, strain BCK2
Out of some 5,500 compounds screened, about 2,000 (36%) were called active. Not shown: some 18% with an inconclusive outcome. No stated cut-off is given here; in the data, active means normalized growth mostly below about 0.91 (no sharp cut-off); inconclusive means no clear call, values can overlap the other calls; inactive means mostly above about 0.92. The list shows a part of the results.
Bench note: report the call from 1 = active, 0 = inactive

Before answering, review these 2 worked examples.
STRUCTURE SMILES STRING | QUALITATIVE LABEL
CC(C)[C@]12O[C@H]1[C@@H]1O[C@@]13[C@@]1(C)CCC4=C(COC4=O)[C@@H]1C[C@@H]1O[C@@]13C2=O | 0
CN(C)CCC=C1c2ccccc2C=Cc2ccccc21 | 0

Consider the additional compound presented here.
Input: Test call for this compound, please: O=C(/C=C/c1ccccc1)c1ccc(O)cc1
Output: 1

====

For each record, write down the corresponding normalized growth.
# PROTOCOL DESCRIPTION: chemical genetic growth profiling, strain panel (AID 1159580);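 further: tested at 20 µM; growth read once vehicle control cultures reached saturation at 30 °C; 1 = growth at the plate median or of vehicle wells; lower values mean less growth of the strain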
# EXPERIMENTAL CONTEXT: S. cerevisiae deletion strains, growth OD, locus YDR297W, strain sur2, active compounds read low
Hit rate of the full screen: of about 5,500 compounds, about 2,000 (36%) were called active. Another 18% or so got no clear call; they are omitted. The list shows a part of the results.

Here's what some known entries look like.
MOLECULE | normalized growth
O=c1c2ccccc2[se]n1-c1ccccc1 | 0.06 (active)
CCCCOc1cc(CC2CNC(=O)N2)ccc1OC (configuration not stated) | 0.993 (inactive)

Give one value of normalized growth per listed molecule.
1. O=C(O)c1cn(-c2ccc(F)cc2)c2cc(N3CCNCC3)c(F)cc2c1=O
2. Nc1nc(N)c2nc(-c3ccccc3)c(N)nc2n1
3. CC(=O)O[C@H]1C[C@@H](O)C(C)(C)C2C[C@@H](OC(C)=O)[C@]3(C)C(CC[C@@]4(C)[C@H](c5ccoc5)OC(=O)C5OC543)[C@]21C (some centres not stated)
4. O=c1cc(-c2ccc(O)c(O)c2)oc2ccccc12
5. N[C@@H]1CONC1=O

Output:
1: 0.981 (inactive); 2: 1 (inactive); 3: 1.01 (inactive); 4: 0.971 (inactive); 5: 0.993 (inactive)

====

# PROTOCOL DESCRIPTION: chemical genetic growth profiling, strain panel (AID 1159580);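 further: tested at 20 µM; growth read once vehicle control cultures reached saturation at 30 °C; 1 = growth at the plate median or of vehicle wells; lower values mean less growth of the strain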
# EXPERIMENTAL CONTEXT: S. cerevisiae deletion strains, growth OD, locus YJL115W, strain asf1, active compounds read low
The whole screen tested about 5,500 compounds, of which about 2,000 (36%) were called active. Roughly 18% stayed inconclusive and do not appear here. The list shows a part of the results.
For each record, write down the corresponding normalized growth.
Numbers only.

Here's what some known entries look like.
COMPOUND | normalized growth
O=c1c2ccccc2[se]n1-c1ccccc1 | 0.0858
CC(=O)[C@H]1CCC2C3CC=C4C[C@@H](O)CC[C@]4(C)C3CC[C@@]21C (some centres undefined) | 0.994
CC(=O)O[C@H]1C[C@H](O[C@H]2[C@@H](O)C[C@H](O[C@H]3[C@@H](O)C[C@H](O[C@H]4CC[C@@]5(C)C(CCC6C5C[C@@H](O)[C@]5(C)[C@@H](C7=CC(=O)OC7)CC[C@]65O)C4)O[C@@H]3C)O[C@@H]2C)O[C@H](C)[C@H]1O[C@@H]1O[C@H](CO)[C@@H](O)[C@H](O)[C@H]1O (some centres undefined) | 0.996
CCN1CCN(c2cc3c(cc2F)c(=O)c(C(=O)O)cn3C2CC2)CC1 | 0.989
CCN(CC)CCNc1ccc(CO)c2sc3ccccc3c(=O)c12 | 1.03

Give one value of normalized growth per listed compound.
1. CC(C)(C)C(=O)C(Oc1ccc(Cl)cc1)n1cncn1 (centres undefined)
2. CC(C)=CCc1c2c(c(O)c3c(=O)c(O)c(-c4ccccc4)oc13)C=CC(C)(C)O2
3. O=C1c2c(O)ccc(O)c2C(=O)c2c(NCCNCCO)ccc(NCCNCCO)c21
4. CN1CCN2c3ccccc3Cc3ccccc3C2C1 (centres undefined)
5. COc1cc([C@@H]2c3cc4c(cc3C(O[C@@H]3O[C@@H]5CO[C@@H](c6cccs6)OC5[C@H](O)[C@H]3O)C3COC(=O)[C@@H]32)OCO4)cc(OC)c1O (some centres undefined)
6. Nc1nc(N)c2nc(-c3ccccc3)c(N)nc2n1
7. O=C(O)c1cn(-c2ccc(F)cc2)c2cc(N3CCNCC3)c(F)cc2c1=O

Output:
1: 0.396; 2: 0.829; 3: 0.321; 4: 1; 5: 0.96; 6: 1; 7: 0.963

Give one value of normalized growth per listed compound.
1. CN(C)CCC=C1c2ccccc2CCc2ccccc21
2. CCn1cc(C(=O)O)c(=O)c2cc(F)c(N3CCNCC3)cc21
3. CCCCCCc1ccc(O)cc1O
4. C[C@@H]1CC[C@@]2(OC1)OC1C(O)C3C4CC[C@H]5C[C@H](O[C@@H]6O[C@H](CO)[C@H](O[C@@H]7O[C@H](CO)[C@@H](O)[C@H](O[C@@H]8OC[C@@H](O)[C@H](O)[C@H]8O)[C@H]7O[C@@H]7O[C@H](CO)[C@H](O)[C@H](O[C@@H]8O[C@H](CO)[C@@H](O)[C@H](O)[C@H]8O)[C@H]7O)[C@H](O)[C@H]6O)[C@H](O)C[C@]5(C)C4CC[C@]3(C)C1[C@@H]2C (some centres undefined)
5. COc1cc2cc[n+]3cc4c(OC)c(OC)ccc4cc3c2cc1OC
6. C/C(=C\C(=O)OCCCCCCCCC(=O)O)C[C@@H]1OC[C@H](C[C@@H]2O[C@H]2[C@@H](C)[C@H](C)O)[C@@H](O)[C@H]1O
7. COC(=O)C1=C(C)NC(C)=C(C(=O)OC)C1c1ccccc1[N+](=O)[O-]
8. CCCCCCCCCc1ccc(O)cc1

Output:
1. 0.974
2. 0.976
3. 0.993
4. 1.03
5. 0.936
6. 0.954
7. 0.969
8. 0.113

Give one value of normalized growth per listed compound.
1. COc1c(O)cccc1O
2. CC(C)c1ccc2c(c1O)CC[C@H]1C3=C(CC[C@]21C)C(=O)OC3
3. COc1ccc(-c2cc(=O)c3c(OC(C)=O)cc(OC(C)=O)cc3o2)cc1
4. COc1c2c(cc3c1OCO3)CC[N+](C)=C2
5. COCCOC(=O)C1=C(C)NC(C)=C(C(=O)OC(C)C)C1c1cccc([N+](=O)[O-])c1 (centres undefined)

Output:
[1.04, 0.956, 0.989, 0.977, 1.02]

Give one value of normalized growth per listed compound.
1. CN(C)CC/C=C1/c2ccccc2COc2ccccc21
2. Nc1ccc(C(=O)Oc2ccccc2)c(O)c1
3. CC(=O)Nc1ccc(O)cc1

Output:
[1.03, 0.936, 1.02]

Input: Find the recorded normalized growth belonging to COc1cc([C@@H]2c3cc4c(cc3[C@H](OC(C)=O)[C@H]3COC(=O)[C@H]23)OCO4)cc(OC)c1OC and report it.
Output: 1.01

Where these numbers come from: PubChem BioAssay AID1159580
